Assignment: determine reported AC50 for the given compounds.

[in] Tell me its AC50 on Cytochrome P450 1A2 (Homo sapiens, UniProt P05177): CCCCSc1nnc(-c2ccc(C)cc2)n1C
Sequence (P05177 whole entry): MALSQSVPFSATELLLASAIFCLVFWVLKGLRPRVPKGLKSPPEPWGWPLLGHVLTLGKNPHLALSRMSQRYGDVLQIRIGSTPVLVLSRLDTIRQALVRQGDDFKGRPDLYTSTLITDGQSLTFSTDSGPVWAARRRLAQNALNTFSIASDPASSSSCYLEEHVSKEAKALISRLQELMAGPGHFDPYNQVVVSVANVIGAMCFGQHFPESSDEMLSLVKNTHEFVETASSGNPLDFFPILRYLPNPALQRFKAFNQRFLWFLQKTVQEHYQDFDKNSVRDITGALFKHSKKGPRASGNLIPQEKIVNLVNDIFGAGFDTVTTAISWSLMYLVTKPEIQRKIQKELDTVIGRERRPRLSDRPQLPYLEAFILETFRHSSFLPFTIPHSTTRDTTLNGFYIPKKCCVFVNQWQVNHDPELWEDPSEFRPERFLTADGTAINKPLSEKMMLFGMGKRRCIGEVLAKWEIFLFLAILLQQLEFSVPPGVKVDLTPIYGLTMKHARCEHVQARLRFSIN
[out] 28.2 µM (inconclusive)

[in] Tell me its AC50 on Cytochrome P450 1A2 (Homo sapiens, UniProt P05177): Cc1c(N2C(=O)/C(=C3/C(=O)N(C)c4ccccc43)SC2=S)c(=O)n(-c2ccccc2)n1C
[out] 25.1 µM (inconclusive)

[in] Tell me its AC50 on Cytochrome P450 1A2 (Homo sapiens, UniProt P05177): O=C(Oc1c(Br)cc(C(=S)N2CCOCC2)cc1Br)c1ccc(Cl)cc1
[out] 17.8 µM (inconclusive)

[in] Tell me its AC50 on Cytochrome P450 1A2 (Homo sapiens, UniProt P05177): CCCCN(C)CCCNC(=O)c1ccc(N2CCCC2=O)cc1
[out] 0.126 µM (inconclusive)

[in] Tell me its AC50 on Cytochrome P450 1A2 (Homo sapiens, UniProt P05177): OC[C@@H]1O[C@H](n2cnc3c(/C=C(\O)c4ccccc4)ncnc32)[C@H](O)[C@@H]1O
[out] 0.501 µM (inconclusive)

[in] Tell me its AC50 on Cytochrome P450 1A2 (Homo sapiens, UniProt P05177): O=C(C1CCN(S(=O)(=O)c2cccc3cccnc23)CC1)N1CCN(c2ccccn2)CC1
[out] 20 µM (inconclusive)

[in] Tell me its AC50 on Cytochrome P450 1A2 (Homo sapiens, UniProt P05177): CN1CCN(c2ncc3nc(-c4cc(F)cc(F)c4)c(=O)n(Cc4cccs4)c3n2)CC1
[out] 6.31 µM (inconclusive)

[in] Tell me its AC50 on Cytochrome P450 1A2 (Homo sapiens, UniProt P05177): COc1ccc(C)cc1NC(=O)CSc1nnc(-c2ccc(OC)c(OC)c2)n1N
[out] 11.2 µM (inconclusive)

[in] Tell me its AC50 on Cytochrome P450 1A2 (Homo sapiens, UniProt P05177): O=C(Nc1ccccc1)N1CC[C@@]2(CCCN(C(=O)Oc3ccccc3)C2)C1
[out] 15.8 µM (inconclusive)

[in] Tell me its AC50 on Cytochrome P450 1A2 (Homo sapiens, UniProt P05177): O=C(Nc1ccccc1)N(Cc1ccccc1)CC(O)C(F)(F)F (stereo unspecified)
[out] 17.8 µM (inconclusive)

[in] Tell me its AC50 on Cytochrome P450 1A2 (Homo sapiens, UniProt P05177): O=C(NCC1CCCO1)/C(=C\c1ccco1)NC(=O)c1ccccc1 (stereo unspecified)
[out] 14.1 µM (inconclusive)

[in] Tell me its AC50 on Cytochrome P450 1A2 (Homo sapiens, UniProt P05177): Cc1c(C)c2c(c(C)c1O)CC[C@@](C)(C(=O)O)O2
[out] 20 µM (inconclusive)

[in] Tell me its AC50 on Cytochrome P450 1A2 (Homo sapiens, UniProt P05177): Fc1cccc(Cl)c1CSc1nc[nH]n1
[out] 10 µM (inconclusive)

[in] Tell me its AC50 on Cytochrome P450 1A2 (Homo sapiens, UniProt P05177): Cc1cc(C)c(S(=O)(=O)Nc2ccccc2C(F)(F)F)c(C)c1
[out] 31.6 µM (inconclusive)

[in] Tell me its AC50 on Cytochrome P450 1A2 (Homo sapiens, UniProt P05177): Cc1cc(C=C(C#N)C#N)c(C)n1-c1ccccc1
[out] 2.24 µM (inconclusive)

[in] Tell me its AC50 on Cytochrome P450 1A2 (Homo sapiens, UniProt P05177): O=C(Oc1ccccc1)N1CCC2(CC1)CN(c1ccccc1)C2
[out] 15.8 µM (inconclusive)
